Data provenance is paper PMC10164552.

tested system: PBRM1 BD2 (UniProt Q86U86 178-291)
Sequence (Q86U86 178-291): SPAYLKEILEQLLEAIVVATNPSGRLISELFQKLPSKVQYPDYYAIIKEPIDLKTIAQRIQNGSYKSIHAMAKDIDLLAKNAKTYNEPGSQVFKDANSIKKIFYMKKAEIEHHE
measurement notes: NMR titration (1H-15N HSQC); NMR: 0.1 mM 15N-BD, 50 mM K phosphate pH 7.0, 50 mM KCl, 2 mM DTT, 2 mM EDTA, 7% D2O, 25 C; EMSA: 50 mM K phosphate pH 7.0, 10 mM KCl, 2 mM DTT, 2 mM EDTA, 5% sucrose, on ice 1 h, gel at 4 C
assay setup: protein: recombinant; tags: His tag, TEV-cleaved
measurement label: pKd
One number for each entry, as −log10 of the molar value.

| binder | pKd |
| --- | --- |
| CGTAGACAGCT (ssDNA) [ssDNA] | 3.89 |

Task item: pKd for UUUUUUUUUUUUU (ssRNA) [ssRNAI poly-U 13 nt] ?
Reply: 3.46
